Each item that follows carries a reported Relative Free Radical Scavenging Activity(%) on ABTS.
RUN DESCRIPTION: Free radical scavenging activity on ABTS radical cation (absorbance at 730nm)
Assay type: biochemical
TEST CONTEXT: 46.0µM
Remember to quote the unit after the number.

In the examples that follow, each entry is paired with its recorded Relative Free Radical Scavenging Activity(%) on ABTS.
MOLECULE	DATA VALUE
CCOC(=O)C[n+]1cccc(C(=O)NNc2ccccn2)c1.[Br-]	69.3%
COCCOC(=O)c1ccc[n+](CC(=O)c2ccc(Cl)cc2Cl)c1	69.3%
O=C(NCCOC(=O)c1ccccc1)c1cc[n+](CC(=O)c2cccs2)cc1.[Br-]	75.2%
CCCCNC(=O)c1ccc[n+](CC(=O)c2ccc(Cl)cc2Cl)c1.[Br-]	37.8%

Reported Relative Free Radical Scavenging Activity(%) on ABTS for `O=C(C[n+]1cccc(C(=O)NNS(=O)(=O)Cc2ccccc2)c1)c1ccccc1.[Br-]` : what is it?
66.9%

Reported Relative Free Radical Scavenging Activity(%) on ABTS for O=C1CCCC(CCNNC(=O)c2ccc[n+](CC(=O)Nc3ccccc3)c2)C1.[Br-] (stereo not drawn) : what is it?
80.9%
